Origin of values: PubChem BioAssay (NCI)

Tested on: OVCAR-3 ovarian
Assay: NCI tumour cell line growth inhibition, 48 h; in the data active = GI50 below about 0.43 µM; inactive = the rest
// allowed return values: 1.0 (active), 0.0 (inactive)

These recorded examples may help you get a feel for the data.
- molecule: "CCCCCCCC/C(=C\\C1=C(C)C(=O)C(OC)=C(OC)C1=O)C(=O)O"
  className: 0.0
- molecule: "O=C1C=CC2(NN=C(c3ccccc3)N2c2ccccc2)c2cccc(O)c21 (centres undefined)"
  className: 0.0
- molecule: "COc1cc2nccc(Oc3ccc(NC(=O)C4(C(=O)Nc5ccc(F)cc5)CC4)cc3)c2cc1OC(=O)c1ccc(N)cc1"
  className: 0.0

Ask: Which outcome did this test record for the molecule `O=S(=O)(Nc1ccc2ccccc2c1)N1CCCCC1` ?
Reply: 0.0

Ask: Which outcome did this test record for the molecule `O=C(NNC(=O)c1ccccc1S)c1ccccc1S` ?
Reply: 0.0

Ask: Which outcome did this test record for the molecule `C#CCNCCCN1C(=O)c2ccc3c4c(ccc(c24)C1=O)C(=O)N(CCCNCC#C)C3=O` ?
Reply: 1.0

Ask: Which outcome did this test record for the molecule `CCNC(=O)N1CCc2c(Cl)c3c(c(OC)c2[C@@H]1[C@H]1OCc2c1ccc(OC)c2OC)OCCO3` ?
Reply: 0.0

Ask: Which outcome did this test record for the molecule `COc1ccc(/C=C/C(=O)Nc2cc(/C=C\c3cc(OC)c(OC)c(OC)c3)cc(OC)c2OC)cc1OC` ?
Reply: 0.0

Ask: Which outcome did this test record for the molecule CCC(C)CN=C(N)c1ccc(N2CCN(c3ccc(C(N)=NCC(C)CC)cc3)CC2)cc1 (centres undefined) ?
Reply: 0.0
